assay: chemical genetic growth profiling, strain panel (AID 1159580);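 also: tested at 20 µM; growth read once vehicle control cultures reached saturation at 30 °C; 1 = growth at the plate median or of vehicle wells; lower values mean less growth of the strain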; details: S. cerevisiae deletion strains, growth OD, locus YML120C, strain ndi1, active compounds read low
About 2,000 (36%) of roughly 5,500 compounds were called active. About 18% were inconclusive and are not listed. This is one part of the list.
# 1.0 = normalized growth below 1 (exclusive); 0.0 = normalized growth at/above 1

- Cpd smiles: "N#Cc1c(Cl)c(Cl)c(Cl)c(C#N)c1Cl"
  Group: 1.0
- Cpd smiles: "CCCCCCCCCCCCC[N+](C)(C)Cc1ccccc1"
  Group: 1.0
- Cpd smiles: "Cc1cc(C(C)(C)CC(C)(C)C)ccc1OCCOCC[N+](C)(C)Cc1ccccc1"
  Group: 1.0

Enquiry: In plain terms, does CC[C@@H](CO)NCCN[C@@H](CC)CO come in under 1 for normalized growth?
Return: 0.0

Data origin: PubChem BioAssay AID1159580
